Tested on: hepatocellular carcinoma (HepG2)
Measurement Description: In vitro antiproliferative activity, HepG2
Assay type: cell-based, human
Assay Conditions: HepG2 cells
Measured Quantity: pIC50
In textbook form, pIC50 equals minus log to base ten of the concentration in mol/L.

Example results:
>>> experimental_value("CC([c-]1cccc1)n1cc(Cn2cnc3ccccc32)nn1.[Fe+2].c1cc[cH-]c1 (centres unmarked) [Compound 23b]")
4.08
>>> experimental_value("CC([c-]1cccc1)n1cc(Cn2cnc3c(Cl)ncnc32)nn1.[Fe+2].c1cc[cH-]c1 (centres unmarked) [Compound 13b]")
4.41
>>> experimental_value("Clc1ncnc2c1ncn2Cc1cn(C[c-]2cccc2)nn1.[Fe+2].c1cc[cH-]c1 [Compound 13a]")
4.70
>>> experimental_value("Clc1ncnc2c1ncn2Cc1cn(-[c-]2cccc2)nn1.[Fe+2].c1cc[cH-]c1 [Compound 13c]")
4.26
>>> experimental_value("[Fe+2].c1cc[cH-]c1.c1ccc2c(c1)ccn2Cc1cn(-[c-]2cccc2)nn1 [Compound 24c]")
4.04

According to the records, this compound Clc1ncnc2ncn(Cc3cn(C[c-]4cccc4)nn3)c12.[Fe+2].c1cc[cH-]c1 [Compound 15a] displays pIC50 of 4.44

Reported pIC50 for CC([c-]1cccc1)n1cc(Cn2cnc3ncnc(Cl)c32)nn1.[Fe+2].c1cc[cH-]c1 (centres unmarked) [Compound 15b] was 4.43

pIC50 measured on Clc1ncnc2ncn(Cc3cn(-[c-]4cccc4)nn3)c12.[Fe+2].c1cc[cH-]c1 [Compound 15c] = 4.09

Record [Fe+2].c1cc[c-](-c2cn(CCn3ccc4c(N5CCCCC5)ncnc43)nn2)c1.c1cc[cH-]c1 [Compound 34c] . Reported pIC50: 4.24

Reported pIC50 of [Fe+2].c1cc[cH-]c1.c1ccc2c(c1)ncn2Cc1cn(C[c-]2cccc2)nn1 [Compound 23a] : 4.22

pIC50 in this record for CC([c-]1cccc1)n1cc(Cn2ccc3c(Cl)ncnc32)nn1.[Fe+2].c1cc[cH-]c1 (centres unmarked) [Compound 11b] : 4.46

Short answer for CC([c-]1cccc1)n1cc(Cn2cnc3c(N)ncnc32)nn1.[Fe+2].c1cc[cH-]c1 (centres unmarked) [Compound 12b] : pIC50 was 4.16

// field: pIC50; key: Clc1ncnc2c1ncn2CCn1cc(-[c-]2cccc2)nn1.[Fe+2].c1cc[cH-]c1 [Compound 35a] ; value = 4.32

Summary for this compound, Nc1nc(Cl)c2ncn(Cc3cn(C[c-]4cccc4)nn3)c2n1.[Fe+2].c1cc[cH-]c1 [Compound 14a] : pIC50 is 4.22

Note to self: pIC50 recorded for Ic1ccc2c(ccn2Cc2cn(-[c-]3cccc3)nn2)c1.[Fe+2].c1cc[cH-]c1 [Compound 25c] was 4.14

* * *

Measurement Description: Metabolic stability in mouse liver microsomes
Type: in vitro ADME
Assay Conditions: mouse, predicted in vivo hepatic clearance
Collected In Vivo CLh values appear next to each entry.
Just the number in mL/min/kg, nothing appended.

Please review the entries below; each comes with its answer.
>>> experimental_value("CC([c-]1cccc1)n1cc(Cn2ccc3c(Cl)ncnc32)nn1.[Fe+2].c1cc[cH-]c1 (centres unmarked) [Compound 11b]")
25.7
>>> experimental_value("Clc1ncnc2ncn(Cc3cn(C[c-]4cccc4)nn3)c12.[Fe+2].c1cc[cH-]c1 [Compound 15a]")
24.8
>>> experimental_value("Clc1ncnc2c1ncn2Cc1cn(C[c-]2cccc2)nn1.[Fe+2].c1cc[cH-]c1 [Compound 13a]")
25.1
>>> experimental_value("CC([c-]1cccc1)n1cc(Cn2cnc3ncnc(Cl)c32)nn1.[Fe+2].c1cc[cH-]c1 (centres unmarked) [Compound 15b]")
25.4

Here is the next item to consider.
Per the records, this compound ( Clc1ncnc2c1ccn2Cc1cn(-[c-]2cccc2)nn1.[Fe+2].c1cc[cH-]c1 [Compound 11c] ) has In Vivo CLh equal to 25.6

All values here come from paper PMC7180452.
